# protocol: Photostability of the compound at pH 8.6 assessed as compound degradation administered as solution irradiated with sun light and measured after 7 days by HPLC analysis
# Format: physicochemical
# run conditions: time 7 day, read-out: Drug degradation
readout kind: degraded at 168 h (%)
Give bare numbers, in %.

Quick note, degraded at 168 h for `CN(C)C(=O)c1ccc2cccccc1-2` landed at 3

---

# protocol: Octanol-water partition coefficient, logD of the compound at pH 2 by HPLC analysis
# Assay type: physicochemical
# run conditions: read-out: logD
readout kind: logD

Recorded logD, per entry:
COC(=O)c1ccc2ccn(C(=O)c3ccccc3)c2c1 :: 4.4
O=C(Cn1ccccc1=O)Nc1cc2cccccc-2c1 :: 2
COC(=O)c1ccc2c(C(=O)c3ccccc3)cn(C(=O)c3ccccc3)c2c1 :: 5.2
O=C(NCCO)c1ccc2ccc(C(=O)c3ccccc3)c-2cc1 :: 2.3
Cn1c(NC(=O)c2cccnc2)cc2ccccc21 :: -0.1

From here, focus on the item given below.
Quick note, logD for `COC(=O)c1ccc2c(C(=O)c3ccccc3)cc(C(=O)c3ccccc3)c-2cc1` landed at 5.6

---

Target sequence: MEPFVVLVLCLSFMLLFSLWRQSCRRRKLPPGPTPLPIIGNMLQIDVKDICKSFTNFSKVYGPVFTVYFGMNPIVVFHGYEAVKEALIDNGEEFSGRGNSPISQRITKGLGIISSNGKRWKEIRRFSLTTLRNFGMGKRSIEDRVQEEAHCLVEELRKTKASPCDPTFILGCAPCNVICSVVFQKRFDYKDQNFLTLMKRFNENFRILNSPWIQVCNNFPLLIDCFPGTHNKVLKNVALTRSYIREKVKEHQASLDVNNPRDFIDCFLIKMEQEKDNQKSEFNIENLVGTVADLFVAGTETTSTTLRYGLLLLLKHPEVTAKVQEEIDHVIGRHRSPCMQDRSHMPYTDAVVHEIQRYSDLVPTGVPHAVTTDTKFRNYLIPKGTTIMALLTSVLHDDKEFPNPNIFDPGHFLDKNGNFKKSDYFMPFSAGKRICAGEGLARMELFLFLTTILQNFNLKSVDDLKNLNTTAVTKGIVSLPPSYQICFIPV
pIC50: −log10 of the molar value.
readout kind: pIC50

Recorded pIC50, per entry:
O=C(NCCO)c1ccc2ccc(C(=O)c3ccccc3)c-2cc1 :: < 4.30
CN(C)C(=O)c1ccc2cccccc1-2 :: < 4.30
COc1cccc(C(=O)c2ccc3ccc(C(=O)O)ccc2-3)c1 :: 4.66

From here, focus on the item given below.
Quick note, pIC50 for `c1cc2ccc(CN3CCCCC3)ccc-2c1` landed at < 4.30

---

# protocol: Aqueous solubility of the compound at pH 6.8 incubated for 24 hrs under shaking condition by LC-UV analysis
# Type: physicochemical
# run conditions: aqueous medium
Assign solubility thermodynamic at 24 h to each entry below.

Parameters: items (list). Returns: solubility thermodynamic at 24 h for each item.
1. Cn1cc(C(=O)c2ccccc2)c2cc(C(=O)NCCc3cnc[nH]3)ccc21
2. c1cc2ccc(CN3CCCCC3)ccc-2c1
3. CN(C)C(=O)Cc1ccc2cccc-2cc1

Result:
1. 72 µg/mL
2. 31 µg/mL
3. > 43 µg/mL

Parameters: items (list). Returns: solubility thermodynamic at 24 h for each item.
1. O=C(NCc1cccnc1)c1ccc2[nH]cc(C(=O)c3ccccc3)c2c1
2. CN(C)C(=O)c1c[nH]c2ccccc12
3. COC(=O)c1ccc2ccc(C(=O)N(C)C)c-2cc1

Result:
< 1 µg/mL
> 44 µg/mL
> 64 µg/mL

---

# protocol: Octanol-water partition coefficient, logD of the compound at pH 11 by HPLC analysis
# Type: physicochemical
# run conditions: read-out: logD
Threshold-based label: logD under 2 gives true (1), logD not under 2 gives false (0).

O=C(Nc1cc2cccccc-2c1)c1cccnc1 :: true (1)

Ask: I wonder whether `c1cc2ccc(CN3CCCCC3)ccc-2c1` has logD below 2. Can you tell?
Result: false (0)

Ask: I wonder whether `COC(=O)c1ccc2ccc(C(=O)Nc3ccccc3)c-2cc1` has logD below 2. Can you tell?
Result: false (0)

Ask: I wonder whether `CN(C)C(=O)Cc1ccc2cc[nH]c2c1` has logD below 2. Can you tell?
Result: true (1)

Ask: I wonder whether `CN(C)C(=O)c1ccc2cccccc1-2` has logD below 2. Can you tell?
Result: true (1)

Ask: I wonder whether `Cn1cc(C(=O)c2ccccc2)c2cc(C(=O)NCc3cccnc3)ccc21` has logD below 2. Can you tell?
Result: true (1)

Ask: I wonder whether `COC(=O)c1ccc2ccc(C(=O)c3ccccc3)c-2cc1` has logD below 2. Can you tell?
Result: false (0)

---

Assign logD to each entry below.
# protocol: Octanol-water partition coefficient, logD of the compound at pH 2 by HPLC analysis
# Assay type: physicochemical
# run conditions: read-out: logD

Recorded logD, per entry:
c1ccc2cc(CN3CCCCC3)ccc2c1 :: 0.9
CN1CCN(C(=O)c2ccc3ccc(C(=O)c4ccccc4)c-3cc2)CC1 :: 1.2

Parameters: items (list). Returns: logD for each item.
1. COC(=O)c1ccc2ccc(C(=O)Nc3ccccc3)c-2cc1
2. COC(=O)c1ccc2c(c1)c(C(=O)c1ccccc1)cn2C(=O)c1ccccc1

Result:
1: 4; 2: 5.2

Parameters: items (list). Returns: logD for each item.
1. Cn1cc(C(=O)c2ccccc2)c2cc(C(=O)NCc3cccnc3)ccc21
2. COC(=O)c1ccc2ccc(C(=O)N(C)C)c-2cc1

Result:
1. 0.9
2. 2.3

---

Assign pKa to each entry below.
# protocol: Dissociation constant, pKa of the compound by dip probe absorption spectroscopy
# Assay type: physicochemical
Give bare numbers.

O=C(O)c1c[nH]c2ccccc12 :: 5.29

Parameters: items (list). Returns: pKa for each item.
1. O=C(O)c1ccc2cccccc1-2
2. O=C(O)c1ccc2ccc(C(=O)c3ccccc3)c-2cc1
3. O=C(O)c1ccc2cccc-2cc1

Result:
1: 5.1; 2: 3.2; 3: 3.5

---

# target system: Cytochrome P450 2C19 (Homo sapiens, UniProt P33261)
# Sequence (P33261 whole entry): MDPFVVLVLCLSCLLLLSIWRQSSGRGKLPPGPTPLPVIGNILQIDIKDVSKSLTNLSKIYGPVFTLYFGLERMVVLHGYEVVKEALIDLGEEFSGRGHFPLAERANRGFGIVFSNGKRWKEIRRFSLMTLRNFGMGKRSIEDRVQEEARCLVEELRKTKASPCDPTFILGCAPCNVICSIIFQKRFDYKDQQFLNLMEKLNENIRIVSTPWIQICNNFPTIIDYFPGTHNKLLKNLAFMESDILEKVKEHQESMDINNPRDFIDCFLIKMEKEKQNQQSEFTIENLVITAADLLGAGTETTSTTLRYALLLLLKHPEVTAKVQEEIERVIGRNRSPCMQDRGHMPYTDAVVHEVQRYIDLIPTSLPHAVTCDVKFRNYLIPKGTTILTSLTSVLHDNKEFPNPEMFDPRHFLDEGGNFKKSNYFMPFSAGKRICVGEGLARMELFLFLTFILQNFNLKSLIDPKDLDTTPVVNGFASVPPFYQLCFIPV
Assign IC50 to each entry below.

O=C(NCCO)c1ccc2ccc(C(=O)c3ccccc3)c-2cc1 :: > 50 µM

From here, focus on the item given below.
Quick note, IC50 for `NC(=O)C1CCN(C(=O)c2ccc3cccccc2-3)CC1` landed at > 50 µM

---

Assign solubility thermodynamic at 24 h to each entry below.
# protocol: Aqueous solubility of the compound at pH 4.5 incubated for 24 hrs under shaking condition by LC-UV analysis
# Format: physicochemical
# run conditions: aqueous medium

Recorded solubility thermodynamic at 24 h, per entry:
c1ccc2cc(CN3CCCCC3)ccc2c1 :: 30 µg/mL
CN1CCN(C(=O)c2ccc3ccc(C(=O)c4ccccc4)c-3cc2)CC1 :: 67 µg/mL

Parameters: items (list). Returns: solubility thermodynamic at 24 h for each item.
1. COC(=O)c1ccc2c(C(=O)Nc3ccccc3)cn(C)c2c1
2. CN1CCN(C(=O)c2ccc3c(c2)c(C(=O)c2ccccc2)cn3C)CC1
3. COC(=O)c1ccc2c(C(=O)c3ccccc3)cc(C(=O)c3ccccc3)c-2cc1
4. CN(C)C(=O)Cc1ccc2cc[nH]c2c1
5. COC(=O)c1ccc2c(c1)c(C(=O)c1ccccc1)cn2C(=O)c1ccccc1
6. O=C(NCCc1c[nH]c2ccccc12)c1ccc2ccc(C(=O)c3ccccc3)c-2cc1

Result:
1. < 1 µg/mL
2. 76 µg/mL
3. < 1 µg/mL
4. > 51 µg/mL
5. < 1 µg/mL
6. < 1 µg/mL

Parameters: items (list). Returns: solubility thermodynamic at 24 h for each item.
1. O=C(NCCO)c1ccc2[nH]cc(C(=O)c3ccccc3)c2c1
2. O=C(NCCc1cnc[nH]1)c1ccc2ccc(C(=O)c3ccccc3)c-2cc1
3. CN(C)C(=O)c1ccc2cccccc1-2
4. COC(=O)c1ccc2c(C(=O)N(C)C)cn(C)c2c1
5. O=C(Cn1ccccc1=O)Nc1cc2ccccc2[nH]1
6. NC(=O)C1CCN(C(=O)c2ccc3cccccc2-3)CC1
7. O=C(NCc1cccnc1)c1ccc2ccc(C(=O)c3ccccc3)c-2cc1

Result:
1: 18 µg/mL; 2: 57 µg/mL; 3: > 44 µg/mL; 4: > 52 µg/mL; 5: > 67 µg/mL; 6: > 57 µg/mL; 7: < 1 µg/mL

Parameters: items (list). Returns: solubility thermodynamic at 24 h for each item.
1. O=C(Nc1cc2cccccc-2c1)c1cccnc1
2. CN(C)C(=O)Cc1ccc2ccn(C)c2c1

Result:
1: 3 µg/mL; 2: > 53 µg/mL

---

Assign hepatic extraction ratio at 1 µM to each entry below.
# protocol: Metabolic stability in human liver microsomes assessed as hepatic blood flow at 1 uM preincubated with compound followed by NADPH addition by LC-MS/MS analysis
# Type: ADME, Microsome
# run conditions: read-out: QH
Numbers only.

Recorded hepatic extraction ratio at 1 µM, per entry:
c1cc2ccc(CN3CCCCC3)ccc-2c1 :: 0.75
O=C(NCCc1c[nH]c2ccccc12)c1ccc2[nH]cc(C(=O)c3ccccc3)c2c1 :: 0.84
CN(C)C(=O)Cc1ccc2cccc-2cc1 :: 0.27
O=C(Nc1ccc2ccccc2c1)c1cccnc1 :: 0.67
O=C(NCc1cccnc1)c1ccc2ccc(C(=O)c3ccccc3)c-2cc1 :: 0.46
Cn1cc(C(=O)c2ccccc2)c2cc(C(=O)NCCc3c[nH]c4ccccc34)ccc21 :: 0.79
O=C(NCc1cccnc1)c1ccc2[nH]cc(C(=O)c3ccccc3)c2c1 :: 0.56
CN1CCN(C(=O)c2ccc3ccc(C(=O)c4ccccc4)c-3cc2)CC1 :: 0.48

Parameters: items (list). Returns: hepatic extraction ratio at 1 µM for each item.
1. O=C(Nc1cc2cccccc-2c1)c1cccnc1
2. CN(C)C(=O)Cc1ccc2ccccc2c1
3. O=C(NCCc1cnc[nH]1)c1ccc2ccc(C(=O)c3ccccc3)c-2cc1
4. CN(C)C(=O)c1cn(C)c2ccccc12
5. COC(=O)c1ccc2c(C(=O)N(C)C)cn(C)c2c1
6. Cn1cc(C(=O)c2ccccc2)c2cc(C(=O)NCCc3cnc[nH]3)ccc21

Result:
0.71
0.4
0.41
0.55
0.82
0.23
